tested on: MCF-7 cells; assay: Inhibition of E2-stimulated proliferation of MCF-7 cells; assay type: cell-based; conditions: Homo sapiens, MCF7, 168 h; read-out: MCF-7 IC50 proliferation (Fig. 3b)
Documented pIC50 across a set of molecules
In textbook form, pIC50 equals minus log to base ten of the concentration in mol/L.

Worked cases, answers included:
molecule="CC1=C(c2ccc(O)cc2)[C@H](c2ccc(OCCN3CCCC3)cc2)Oc2cc(O)ccc21 [OP-1156]" readout_number=8.20
molecule="C[C@]12CC[C@@H]3c4ccc(O)cc4C[C@@H](CCCCCCCCC[S+]([O-])CCCC(F)(F)C(F)(F)F)[C@H]3[C@@H]1CC[C@@H]2O (stereo partly shown) [fulvestrant, reference compound]" readout_number=8.66
molecule="CC1=C(c2ccc(O)cc2)[C@H](c2ccc(OCCN3CC[C@@H](C)C3)cc2)Oc2cc(O)ccc21 [OP-1074]" readout_number=8.04

Let us move to another entry and its pIC50.
Reported pIC50, molecule CC1=C(c2ccc(O)cc2)[C@H](c2ccc(OCCN3CC[C@H](C)C3)cc2)Oc2cc(O)ccc21 [OP-1154] : ____
8.16
